Biological target: D2 receptors (Rattus norvegicus, UniProt P61169)
Construct: membrane corresponding to 20 mg of rat striatum
Sequence (P61169 whole entry): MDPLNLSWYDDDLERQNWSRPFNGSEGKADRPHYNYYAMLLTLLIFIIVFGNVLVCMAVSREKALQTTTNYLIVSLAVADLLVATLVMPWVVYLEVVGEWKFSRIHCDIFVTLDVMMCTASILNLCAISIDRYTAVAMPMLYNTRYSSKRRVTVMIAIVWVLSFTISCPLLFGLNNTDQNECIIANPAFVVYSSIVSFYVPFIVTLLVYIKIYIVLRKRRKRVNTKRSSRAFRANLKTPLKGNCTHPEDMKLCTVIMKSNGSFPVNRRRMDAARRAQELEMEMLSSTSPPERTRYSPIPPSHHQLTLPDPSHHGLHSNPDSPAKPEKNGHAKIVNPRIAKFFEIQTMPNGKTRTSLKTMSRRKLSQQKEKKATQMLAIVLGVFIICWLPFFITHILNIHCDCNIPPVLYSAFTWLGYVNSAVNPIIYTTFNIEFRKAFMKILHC
Test: Specific binding to D2 receptors ([3H]spiperone, rat striatum membrane)
Conditions: [3H]spiperone 2 nM, rat striatum membrane, 20 min, 35° C., pH 7.4
Assay Readout: pIC50
Friendly reminder that pIC50 comes from taking -log10 of the concentration in mol/L.

Please review the following examples before continuing.
Bench note: what pIC50 did Cc1nc2scc(-c3ccccc3)n2c(=O)c1CCN1CCC(C(=O)c2ccc(F)cc2)CC1 show?
6.76

Using the record for Cc1nc2scc(-c3ccc(Cl)cc3)n2c(=O)c1CCN1CCC(c2noc3cc(F)ccc23)CC1 , report its pIC50.
7.36

What value of measured pIC50 is listed for Cc1nc2scc(-c3ccccc3Cl)n2c(=O)c1CCN1CCC(c2noc3cc(F)ccc23)CC1 ?
7.53

Attention now turns to another entry.
Would you mind telling me what pIC50 value was observed for Cc1nc2scc(-c3ccccc3F)n2c(=O)c1CCN1CCC(c2noc3cc(F)ccc23)CC1 ?
7.09

FYI, the data here is from patent US5798361A.
